The reported measurements were obtained from PubChem BioAssay AID2060488.

Test system: 966289-007-R4-J1-PDC complex spheroid viability
EXPERIMENT_SUMMARY: Anticancer human tumor 966289-007-R4-J1-PDC patient-derived pancreatic adenocarcinoma cell line growth inhibition [GQUAD]; active = viability on the fitted dose curve at most 10% of control; inactive = the rest
EXPERIMENTAL_PARAMETERS: second compound 3.16 µM; first compound 0.316 µM
Write down one outcome, taken from active, inactive

Asked: Check the results log: what was the call for C=CC(=O)N1CCN(c2nc(=O)n(-c3c(C)ccnc3C(C)C)c3nc(-c4c(O)cccc4F)c(F)cc23)C(C)C1 (stereo not given) + Cc1cnc(CNC(=O)c2c(=O)c3ccc(N4CCCN(C)CC4)nc3n3c2sc2ccccc23)cn1 ?
Given back: active

Asked: Check the results log: what was the call for C=CCn1c(=O)c2cnc(Nc3ccc(N4CCN(C)CC4)cc3)nc2n1-c1cccc(C(C)(C)O)n1 + Cc1[nH]c2ccc(F)cc2c1-c1nc2c3cccnc3c3ncccc3c2[nH]1 ?
Given back: inactive

Asked: Check the results log: what was the call for Cn1ncnc1[C@H]1c2n[nH]c(=O)c3cc(F)cc(c23)N[C@@H]1c1ccc(F)cc1 + CN(C)c1ccc(Nc2c3ccc(NC(=O)CCN4CCCC4)cc3nc3cc(NC(=O)CCN4CCCC4)ccc23)cc1 ?
Given back: inactive

Asked: Check the results log: what was the call for COc1ncnc(C2CC2)c1-c1ncc2cnn(Cc3ccc(-c4nc(C(F)(F)F)cn4C(C)C)cc3)c2n1 + Cc1cnc(CNC(=O)c2c(=O)c3ccc(N4CCCN(C)CC4)nc3n3c2sc2ccccc23)cn1 ?
Given back: active

Asked: Check the results log: what was the call for COc1ncnc(C2CC2)c1-c1ncc2cnn(Cc3ccc(-c4nc(C(F)(F)F)cn4C(C)C)cc3)c2n1 + Cc1[nH]c2ccc(F)cc2c1-c1nc2c3cccnc3c3ncccc3c2[nH]1 ?
Given back: inactive

====

System: 966289-007-R4-J1-PDC complex spheroid viability
EXPERIMENT_SUMMARY: Anticancer human tumor 966289-007-R4-J1-PDC cell line growth inhibition [GQUAD]; active means viability on the fitted dose curve at most 10% of control; inactive means the rest;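 also: spheroids exposed to the agents for seven days before readout; percent viability relative to DMSO vehicle control wells taken as 100%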
EXPERIMENTAL_PARAMETERS: second compound 1 µM; first compound 0.316 µM
Write down one outcome, taken from active, inactive

Asked: Check the results log: what was the call for CC1COCCN1c1cc(C2(O)CC3CCC(C2)O3)c2cnn(-c3ccn[nH]3)c2n1 (stereo not given) + Cc1[nH]c2ccc(F)cc2c1-c1nc2c3cccnc3c3ncccc3c2[nH]1 ?
Given back: inactive

Asked: Check the results log: what was the call for COc1cc(C2c3cc4c(cc3C(OC3OC5COC(C)OC5C(O)C3O)C3COC(=O)C23)OCO4)cc(OC)c1O (stereo not given) + Cc1[nH]c2ccc(F)cc2c1-c1nc2c3cccnc3c3ncccc3c2[nH]1 ?
Given back: inactive

Asked: Check the results log: what was the call for CC1COCCN1c1cc(C2(O)CC3CCC(C2)O3)c2cnn(-c3ccn[nH]3)c2n1 (stereo not given) + Cc1cnc(CNC(=O)c2c(=O)c3ccc(N4CCCN(C)CC4)nc3n3c2sc2ccccc23)cn1 ?
Given back: active

Asked: Check the results log: what was the call for COc1cccc2c1C(=O)c1c(O)c3c(c(O)c1C2=O)CC(O)(C(=O)CO)CC3OC1CC(N)C(O)C(C)O1 (stereo not given) + CN(C)c1ccc(Nc2c3ccc(NC(=O)CCN4CCCC4)cc3nc3cc(NC(=O)CCN4CCCC4)ccc23)cc1 ?
Given back: active

Asked: Check the results log: what was the call for C#Cc1c(F)ccc2cc(O)cc(-c3ncc4c(N5CC6CCC(C5)N6)nc(OCC56CCCN5CC(F)C6)nc4c3F)c12 (stereo not given) + Cc1cnc(CNC(=O)c2c(=O)c3ccc(N4CCCN(C)CC4)nc3n3c2sc2ccccc23)cn1 ?
Given back: active

====

Test system: 966289-007-R4-J1-PDC complex spheroid viability
EXPERIMENT_SUMMARY: Anticancer human tumor 966289-007-R4-J1-PDC cell line growth inhibition [GQUAD];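 also: spheroids exposed to the agents for seven days before readout; percent viability relative to DMSO vehicle control wells taken as 100%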
EXPERIMENTAL_PARAMETERS: second compound 3.16 µM; first compound 0.316 µM; active compounds read low
TEST_READOUT: viability, T/C (%)
Please state the figure in %; there is no need to write the unit.

Asked: Consider the compound shown here: Cn1ncnc1[C@H]1c2n[nH]c(=O)c3cc(F)cc(c23)N[C@@H]1c1ccc(F)cc1 + Cc1[nH]c2ccc(F)cc2c1-c1nc2c3cccnc3c3ncccc3c2[nH]1 What is its recorded viability, T/C?
Given back: 12.1

Asked: Consider the compound shown here: COc1ccc([C@@H](O)c2cc(-c3ncnc4cc(N5CCOCC5)ccc34)c(F)cc2Cl)nn1 + Cc1[nH]c2ccc(F)cc2c1-c1nc2c3cccnc3c3ncccc3c2[nH]1 What is its recorded viability, T/C?
Given back: 109

Asked: Consider the compound shown here: Nc1ccn(C2OC(CO)C(O)C2(F)F)c(=O)n1 (stereo not drawn) + Cc1cnc(CNC(=O)c2c(=O)c3ccc(N4CCCN(C)CC4)nc3n3c2sc2ccccc23)cn1 What is its recorded viability, T/C?
Given back: 0.1

====

System: 966289-007-R4-J1-PDC complex spheroid viability
EXPERIMENT_SUMMARY: Anticancer human tumor 966289-007-R4-J1-PDC cell line growth inhibition [GQUAD]; active = viability on the fitted dose curve at most 10% of control; inactive = the rest;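 also: spheroids exposed to the agents for seven days before readout; percent viability relative to DMSO vehicle control wells taken as 100%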
EXPERIMENTAL_PARAMETERS: second compound 3.16 µM; first compound 0.00316 µM
Write down one outcome, taken from active, inactive

Asked: Check the results log: what was the call for CC[C@@]1(O)C(=O)OCc2c1cc1n(c2=O)Cc2cc3c(CN(C)C)c(O)ccc3nc2-1 + Cc1cnc(CNC(=O)c2c(=O)c3ccc(N4CCCN(C)CC4)nc3n3c2sc2ccccc23)cn1 ?
Given back: active

Asked: Check the results log: what was the call for Cc1[nH]c2ccccc2c1CCNCc1ccc(/C=C/C(=O)NO)cc1 + Cc1[nH]c2ccc(F)cc2c1-c1nc2c3cccnc3c3ncccc3c2[nH]1 ?
Given back: inactive

Asked: Check the results log: what was the call for Cc1[nH]c2ccccc2c1CCNCc1ccc(/C=C/C(=O)NO)cc1 + Cc1cnc(CNC(=O)c2c(=O)c3ccc(N4CCCN(C)CC4)nc3n3c2sc2ccccc23)cn1 ?
Given back: active

Asked: Check the results log: what was the call for CCc1c2c(nc3ccc(O)cc13)-c1cc3c(c(=O)n1C2)COC(=O)[C@]3(O)CC + CN(C)c1ccc(Nc2c3ccc(NC(=O)CCN4CCCC4)cc3nc3cc(NC(=O)CCN4CCCC4)ccc23)cc1 ?
Given back: active

Asked: Check the results log: what was the call for Cn1ncnc1[C@H]1c2n[nH]c(=O)c3cc(F)cc(c23)N[C@@H]1c1ccc(F)cc1 + Cc1[nH]c2ccc(F)cc2c1-c1nc2c3cccnc3c3ncccc3c2[nH]1 ?
Given back: inactive

Asked: Check the results log: what was the call for Cc1[nH]c2ccccc2c1CCNCc1ccc(/C=C/C(=O)NO)cc1 + CN(C)c1ccc(Nc2c3ccc(NC(=O)CCN4CCCC4)cc3nc3cc(NC(=O)CCN4CCCC4)ccc23)cc1 ?
Given back: inactive

Asked: Check the results log: what was the call for CC[C@@]1(O)C(=O)OCc2c1cc1n(c2=O)Cc2cc3c(CN(C)C)c(O)ccc3nc2-1 + CN(C)c1ccc(Nc2c3ccc(NC(=O)CCN4CCCC4)cc3nc3cc(NC(=O)CCN4CCCC4)ccc23)cc1 ?
Given back: inactive

Asked: Check the results log: what was the call for CCc1c2c(nc3ccc(O)cc13)-c1cc3c(c(=O)n1C2)COC(=O)[C@]3(O)CC + Cc1cnc(CNC(=O)c2c(=O)c3ccc(N4CCCN(C)CC4)nc3n3c2sc2ccccc23)cn1 ?
Given back: active

Asked: Check the results log: what was the call for CC[C@@]1(O)C(=O)OCc2c1cc1n(c2=O)Cc2cc3c(CN(C)C)c(O)ccc3nc2-1 + Cc1[nH]c2ccc(F)cc2c1-c1nc2c3cccnc3c3ncccc3c2[nH]1 ?
Given back: inactive

Asked: Check the results log: what was the call for Cn1ncnc1[C@H]1c2n[nH]c(=O)c3cc(F)cc(c23)N[C@@H]1c1ccc(F)cc1 + CN(C)c1ccc(Nc2c3ccc(NC(=O)CCN4CCCC4)cc3nc3cc(NC(=O)CCN4CCCC4)ccc23)cc1 ?
Given back: inactive

Asked: Check the results log: what was the call for Cn1ncnc1[C@H]1c2n[nH]c(=O)c3cc(F)cc(c23)N[C@@H]1c1ccc(F)cc1 + Cc1cnc(CNC(=O)c2c(=O)c3ccc(N4CCCN(C)CC4)nc3n3c2sc2ccccc23)cn1 ?
Given back: active

Asked: Check the results log: what was the call for CCc1c2c(nc3ccc(O)cc13)-c1cc3c(c(=O)n1C2)COC(=O)[C@]3(O)CC + Cc1[nH]c2ccc(F)cc2c1-c1nc2c3cccnc3c3ncccc3c2[nH]1 ?
Given back: active
